Biological target: APOL1 (Homo sapiens)
Sequence (O14791 1-398 S342G/I384M): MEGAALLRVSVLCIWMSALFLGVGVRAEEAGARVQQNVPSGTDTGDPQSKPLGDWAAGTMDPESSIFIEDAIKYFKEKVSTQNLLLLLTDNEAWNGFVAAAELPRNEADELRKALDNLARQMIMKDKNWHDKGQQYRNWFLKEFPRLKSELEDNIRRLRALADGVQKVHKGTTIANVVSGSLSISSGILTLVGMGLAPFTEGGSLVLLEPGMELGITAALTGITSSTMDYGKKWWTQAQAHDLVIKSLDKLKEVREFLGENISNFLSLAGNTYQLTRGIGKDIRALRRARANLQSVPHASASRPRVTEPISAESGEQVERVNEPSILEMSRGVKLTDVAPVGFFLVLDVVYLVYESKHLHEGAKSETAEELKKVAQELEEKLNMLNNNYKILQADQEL
Experiment: MultiTox-Fluor Multiplex Cytotoxicity Assay in tet-inducible APOL1 T-REx-HEK293 cells (cell rescue, ratio of dead to live cells)
Details: tet-inducible transgenic APOL1 T-REx-HEK293 cell lines, 50 ng/mL tet, 24 hours; read-out: IP50 (i.e., IC50 for cell proliferation)
PROPERTY: IC50

Examples from the recorded data:
C[C@H]1C[C@@]2(CCN1C[C@H](O)C(N)=O)OCCc1cc(Cl)sc12
100 to 500 nM
CCc1cc2c(s1)CCO[C@@]21CCN(CC2CN(C(=O)COC)C2)[C@@H](C)C1
< 100 nM
CCc1nnc(Cn2cc(CN3CCC4(CC3)OCCc3sc(CC)cc34)nn2)o1
500 to 1000 nM

// next item, IC50 requested
GET /value?item= `CCc1cc2c(s1)CCO[C@@]21CCN(Cc2cn(Cc3c(C)cc(C)nc3O)nn2)[C@@H](C)C1` &field=IC50 returns 100 to 500 nM

---

Molecular target: UniProt O14791
Experiment: MultiTox-Fluor Multiplex Cytotoxicity Assay in tet-inducible APOL1 T-REx-HEK293 cells (cell rescue, ratio of dead to live cells)
Settings: tet-inducible transgenic APOL1 T-REx-HEK293 cell lines, 50 ng/mL tet, 24 hours; read-out: IP50 (i.e., IC50 for cell proliferation)
PROPERTY: IC50

CCc1cc2c(s1)CCO[C@@]21CCN(CC(C)C)[C@@H](C)C1
500 to 1000 nM
C[C@H]1C[C@@]2(CCN1Cc1cnn(CCS(C)(=O)=O)c1)OC[C@@](O)(C(F)F)c1cc(Cl)sc12
< 100 nM
C[C@H]1C[C@@]2(CCN1Cc1cnn(CC(C)(O)C(N)=O)c1)OCCc1c2sc(C(F)(F)F)c1CO (stereo partly shown)
< 100 nM

// next item, IC50 requested
// IC50 (UniProt O14791) for CCc1cc2c(s1)CCO[C@@]21CCN(Cc2cn(CC3(CO)CCOC3)nn2)[C@@H](C)C1 (stereo partly shown) = 100 to 500 nM

---

Target: APOL1 (Homo sapiens, UniProt O14791)
Assay: MultiTox-Fluor Multiplex Cytotoxicity Assay in tet-inducible APOL1 T-REx-HEK293 cells (cell rescue, ratio of dead to live cells)
Settings: tet-inducible transgenic APOL1 T-REx-HEK293 cell lines, 50 ng/mL tet, 24 hours; read-out: IP50 (i.e., IC50 for cell proliferation)
pIC50: −log10 of the molar value.
Kindly state pIC50 for each of the entries shown.

Examples from the recorded data:
CCc1cc2c(s1)CCO[C@@]21CCN(C2COCC2O)[C@@H](C)C1 (some centres unmarked) [Compound 233]
6.30 to 7.00
CCc1cc2c(s1)CCO[C@@]21CCN(Cc2cn(CC(O)c3c(C)nn(C)c3C)nn2)[C@@H](C)C1 (some centres unmarked)
> 7.00
CCc1cc2c(s1)CCO[C@@]21CCN(Cc2cn(CCNC(=O)c3ccncc3)nn2)[C@@H](C)C1
> 7.00
C[C@H]1C[C@@]2(CCN1Cc1ncccc1F)OCCc1cc(Cl)sc12
6.00 to 6.30
CCc1cc2c(s1)CCO[C@@]21CCN(C[C@H]2C[C@@H](NS(=O)(=O)CCO)C2)[C@@H](C)C1
> 7.00

Batch request: pIC50 per item, same order as input.
1. CCc1cc2c(s1)CCOC21CCN(Cc2ccc(C(=O)NCC(C)O)nc2)CC1 (centres unmarked)
2. CCc1cc2c(s1)CCO[C@@]21CCN(Cc2cn(Cc3nc(C)cc(C)n3)nn2)[C@@H](C)C1
3. C[C@H]1C[C@@]2(CCN1Cc1cnn(Cc3ccc(F)cc3)c1)OCCc1cc(Cl)sc12

6.30 to 7.00
6.00 to 6.30
> 7.00
